Test: GFP drop in mixed WT/humanized-ribosome E. coli culture – GFP/RFP fluorescence, OD600, single point, bacterial rRNA inhibitor project, primary screen (AID 720706)
Details: E. coli WT GFP vs humanized-ribosome RFP mutants, 24 h; stronger effect = lower value, DMSO median 0, no signal -100
Among all 350,000 compounds or so, about 5,500 (1.6%) were called active. What follows is part of a selection rich in actives, with near analogues and random picks from the rest.

| structureAsSmiles | GFP signal change (wild-type ribosome) / % |
| --- | --- |
| CCCNC(=O)N1C[C@H](C)[C@@H](OC)CN(C)C(=O)c2ccc(NS(=O)(=O)CC(F)(F)F)cc2OC[C@@H]1C | -0.684 |
| O=C(c1ccccc1)N1CC(=O)N2[C@@H](CO)[C@H](c3ccc(C#CCC4CCCC4)cc3)[C@@H]2C1 | -0.385 |
| Cc1ccc(-c2ccc([C@H]3[C@H]4CN(S(=O)(=O)c5cccc(F)c5)CC(=O)N4[C@H]3CO)cc2)cc1 | 1.77 |

* * *

Listed next: entries and their corresponding GFP signal change (wild-type ribosome).
Assay: GFP drop in mixed WT/humanized-ribosome E. coli culture – GFP/RFP fluorescence, OD600, single point, bacterial rRNA inhibitor project, primary screen (AID 720706)
Conditions: E. coli WT GFP vs humanized-ribosome RFP mutants, 24 h; stronger effect = lower value, DMSO median 0, no signal -100
The campaign covered roughly 350,000 compounds. About 5,500 (1.6%) were called active. The sample holds actives, similar compounds and a random draw of the others, so the mix is not that of the screen.

| molecule | GFP signal change (wild-type ribosome) [%] |
| --- | --- |
| COc1ccccc1CNC(=O)C[C@@H]1C[C@H]2c3cc(NC(=O)CN(C)C)ccc3O[C@H]2[C@@H](CO)O1 | 0.305 |
| N#Cc1cccc(-c2ccc(C3[C@@H]4CNC[C@H]3N4)cc2)c1 (stereo partly drawn) | -0.575 |
| Cc1cccc(N2C(=O)SC(N(CC(=O)O)c3cccc(C)c3)C2=O)c1 (stereo not drawn) | 2.86 |
| CC(C)(C)NC(=O)NC(=O)CN1CCC(Cc2ccccc2)CC1 | -31.9 |
| COc1ccc(CN(C)C[C@@H]2Oc3ccc(NS(=O)(=O)c4cn(C)cn4)cc3C(=O)N([C@@H](C)CO)C[C@@H]2C)cc1 | 2.98 |
| N#C[C@H]1[C@@H](c2ccc(C#CC3CCCC3)cc2)[C@H](CO)N1C(=O)Nc1ccc(F)cc1 | -20.3 |
| COc1cc(CN2CC3(CN(S(=O)(=O)c4cccs4)C3)c3c(n(C)c4cc(OC)ccc34)[C@H]2CO)cc(OC)c1 | 4.45 |
| O=C(CN1CCCCC1)NC(=O)Nc1ccccc1F | 20.5 |

* * *

Test: GFP drop in mixed WT/humanized-ribosome E. coli culture – GFP/RFP fluorescence, OD600, single point, bacterial rRNA inhibitor project, primary screen (AID 720706)
Conditions: E. coli WT GFP vs humanized-ribosome RFP mutants, 24 h; measured here: RFP humanized mutant strains, DMSO median 0, no signal -100, concentration not given here
Out of some 350,000 compounds screened, about 5,500 (1.6%) were called active. The full list was thinned out, with actives kept by preference.
Collected RFP signal change values appear next to each entry.

| molecule | RFP signal change |
| --- | --- |
| CCc1ccc(C2=CC(=O)CC(C)(C)C2=O)cc1 | 1.11% |
| O=C(Nc1ccccc1F)N[C@H]1CC[C@@H](CCNS(=O)(=O)c2ccc(F)cc2)O[C@@H]1CO | 0.665% |
| CC(C)NC(=O)NCC[C@H]1CC[C@@H](NS(=O)(=O)c2ccc(Oc3ccccc3)cc2)[C@@H](CO)O1 | -2% |
| CO[C@H]1CN(C)C(=O)c2ccc(NC(=O)c3ccccc3F)cc2OC[C@H](C)N(C(=O)c2ccccc2F)C[C@H]1C | 0.417% |
| O=C(COc1ccc(Cl)cc1)NC(=S)Nc1ccccc1N1CCOCC1 | -2.65% |
| C[C@@H]1CCCCO[C@H](CN(C)C)[C@H](C)CN([C@@H](C)CO)C(=O)c2cc(NS(=O)(=O)c3cn(C)cn3)ccc2O1 | -1.01% |
| O=C(C1CCOCC1)N1C[C@H]2[C@@H](c3ccccc31)[C@@H](CO)N2Cc1ccccc1 | -0.998% |
| Cc1cccc(OCC(=O)NC(=S)Nc2ccccc2N2CCOCC2)c1 | 1.75% |
| COc1cccc(NC(=O)Nc2ccc3c(c2)OC[C@@H](C)NC[C@@H](C)[C@H](OC)CN(C)C3=O)c1 | 2.58% |
| Cc1ccc(S(=O)(=O)N(C)C[C@H]2Oc3c(NS(=O)(=O)c4cn(C)cn4)cccc3C(=O)N([C@@H](C)CO)C[C@H]2C)cc1 | -0.801% |
| COc1cccc(C(NC(C)=O)c2nc(-c3cnc4ccccc4c3)cs2)c1 (configuration not stated) | -4.72% |
| CNC[C@@H]1Oc2ccc(NS(=O)(=O)c3c(C)noc3C)cc2CC(=O)N([C@@H](C)CO)C[C@@H]1C | 1.62% |
| O=C(OCC(=O)c1c[nH]c2ccccc12)c1cccc(O)c1 | -14.1% |
| Cc1cc(=O)[nH]c(N/N=C/c2c(C)nn(-c3ccccc3Cl)c2Cl)n1 | -1.95% |
| CCNc1ccc(C(=O)OCC(=O)N2c3ccccc3NC(=O)C2(C)C)cc1[N+](=O)[O-] | -4.1% |
| CC=Cc1ccc2n(c1=O)C[C@@H]1[C@@H](CO)[C@H](C(=O)NCCc3ccccc3)N(C(C)=O)[C@H]21 (mixture of isomers) | -0.668% |
| COc1cccc(C(NC(C)=O)c2nc(-c3ccccc3OC)cs2)c1 (configuration not stated) | 3.69% |
| CCCNC(=O)N(C)C[C@H]1Oc2ncc(-c3ccc(C(=O)N(C)C)cc3)cc2C(=O)N([C@@H](C)CO)C[C@@H]1C | -1.77% |
| CC(NC(=O)Nc1ccc2c(c1)OCO2)c1ccncc1 (configuration not stated) | 1.46% |
| C=C1CCC(N(O)c2cc(C)on2)C(=C)CCC2C1CC2(C)C (configuration not stated) | 1.7% |
| Cc1cccc(NC(=O)CCn2c(=O)oc3ccccc32)c1 | -1.45% |
| Cc1cccc(NC(=O)Nc2ccc3c(c2)OCO3)n1 | -5.02% |
| CCCNC(=O)N1C[C@H](C)[C@@H](OC)CN(C)C(=O)c2ccc(NS(=O)(=O)CC(F)(F)F)cc2OC[C@@H]1C | -1.07% |
| C=CCc1c(C)nc2cc(-c3ccccc3)[nH]n2c1=O | -2.25% |
| COc1ccccc1CN1[C@H](CO)[C@H](c2ccccc2)C12CN(C(=O)c1ccccn1)C2 | 11% |
| O=C(NCC1CC1)[C@@H]1[C@@H](CO)[C@@H]2Cn3c(ccc(-c4ccncc4)c3=O)[C@H]1N2Cc1nccs1 | -1.83% |
| O=S(=O)(c1ccccc1)N1CCc2ccccc21 | 1.3% |
